System: Mycobacterium tuberculosis H37Ra
Experimental Protocol: Antimycobacterial microdilution broth MIC (resazurin), Mtb H37Ra
Assay type: cell-based
Study Conditions: Mycobacterium tuberculosis, H37RA, read-out: MIC Mtb H37Ra (μg/mL)
Measured MIC by item
Experimental Endpoint: MIC (µg/mL)

Molecule	Experimental Endpoint	Measured
CO[C@H]1/C=C/O[C@@]2(C)Oc3c(C)c(O)c4c(O)c(c(/C=N/N5CCN(C)CC5)c(O)c4c3C2=O)NC(=O)/C(C)=C\C=C\[C@H](C)[C@H](O)[C@@H](C)[C@@H](O)[C@@H](C)[C@H](OC(C)=O)[C@@H]1C [RIF, rifampicin, reference compound]	MIC	0.00313
O=C(Cc1ccccc1)Nc1ccccn1	MIC	31.2
O=C(Cc1ccc(F)cc1)Nc1ccc(Cl)cn1	MIC	15.6

###

Test system: Staphylococcus epidermidis CCM 4418, ATCC 12228
Experimental Protocol: Antibacterial microdilution broth MIC, SE
Format: cell-based
Study Conditions: 24 h, read-out: MIC SE 24h
Experimental Endpoint: MIC (µM)

In [3]: df
Out[3]:
                              cpd_smiles                           subject_of_test  bound_operator  measured
0        COc1cccc(CC(=O)Nc2cccc(Cl)n2)c1  Staphylococcus epidermidis CCM 4418, ATCC 12228               >       500
1        COc1ccc(CC(=O)Nc2cccc(Cl)n2)cc1  Staphylococcus epidermidis CCM 4418, ATCC 12228               =       500
2         O=C(Cc1ccc(F)cc1)Nc1ccc(Cl)cn1  Staphylococcus epidermidis CCM 4418, ATCC 12228               =       125
3                O=C(Cc1ccccc1)Nc1ccccn1  Staphylococcus epidermidis CCM 4418, ATCC 12228               >       500
4  O=C(Cc1cccc(C(F)(F)F)c1)Nc1ccc(Cl)cn1  Staphylococcus epidermidis CCM 4418, ATCC 12228               >       500
5            O=C(Cc1ccccc1)Nc1cccc(Cl)n1  Staphylococcus epidermidis CCM 4418, ATCC 12228               >       500
6  O=C(Cc1ccc(C(F)(F)F)cc1)Nc1cccc(Cl)n1  Staphylococcus epidermidis CCM 4418, ATCC 12228               >       500
7  O=C(Cc1cccc(C(F)(F)F)c1)Nc1cccc(Cl)n1  Staphylococcus epidermidis CCM 4418, ATCC 12228               =       250
8    O=C(Cc1ccccc1C(F)(F)F)Nc1cccc(Cl)n1  Staphylococcus epidermidis CCM 4418, ATCC 12228               >       500
9  O=C(Cc1ccc(C(F)(F)F)cc1)Nc1ccc(Cl)cn1  Staphylococcus epidermidis CCM 4418, ATCC 12228               =       250

###

As shown below, each of these molecules has a reported MIC value.
System: Staphylococcus epidermidis CCM 4418, ATCC 12228
Experimental Protocol: Antibacterial microdilution broth MIC, SE
Assay type: cell-based
Study Conditions: 24 h, read-out: MIC SE 24h
Experimental Endpoint: MIC

>>> print(df.to_string())
                        cpd_smiles  measured
0    O=C(Cc1ccccc1Cl)Nc1cccc(Cl)n1  > 500 µM
1      COc1cccc(CC(=O)Nc2ccccn2)c1  > 125 µM
2  O=C(Cc1ccccc1C(F)(F)F)Nc1ccccn1  > 500 µM
3        COc1ccccc1CC(=O)Nc1ccccn1  > 500 µM
4   O=C(Cc1ccc(F)cc1)Nc1cccc(Cl)n1  > 500 µM
5        O=C(Cc1ccccc1Cl)Nc1ccccn1    500 µM

###

Test system: Klebsiella pneumoniae CCM 4415, ATCC 10031
Experimental Protocol: Antibacterial microdilution broth MIC, KP
Study Conditions: 24h
# reported MIC KP 24h; entries follow
Experimental Endpoint: MIC KP 24h

>>> df
                               cpd_smiles  measured
 0  O=C(Cc1ccc(C(F)(F)F)cc1)Nc1cccc(Cl)n1  > 500 µM
 1  O=C(Cc1cccc(C(F)(F)F)c1)Nc1cccc(Cl)n1  > 500 µM
 2              O=C(Cc1ccccc1Cl)Nc1ccccn1  > 500 µM
 3  O=C(Cc1cccc(C(F)(F)F)c1)Nc1ccc(Cl)cn1  > 500 µM
 4        COc1cccc(CC(=O)Nc2ccc(Cl)cn2)c1  > 500 µM
 5      O=C(Cc1ccc(C(F)(F)F)cc1)Nc1ccccn1  > 500 µM
 6          COc1ccccc1CC(=O)Nc1cccc(Cl)n1  > 500 µM
 7            O=C(Cc1cccc(Cl)c1)Nc1ccccn1  > 500 µM
 8        O=C(Cc1ccccc1C(F)(F)F)Nc1ccccn1  > 500 µM
 9  O=C(Cc1ccc(C(F)(F)F)cc1)Nc1ccc(Cl)cn1  > 500 µM
10        COc1ccc(CC(=O)Nc2ccc(Cl)cn2)cc1  > 500 µM
11        O=C(Cc1ccc(Cl)cc1)Nc1ccc(Cl)cn1  > 500 µM
12    O=C(Cc1ccccc1C(F)(F)F)Nc1ccc(Cl)cn1  > 500 µM
13          O=C(Cc1ccccc1Cl)Nc1ccc(Cl)cn1  > 500 µM
14        COc1ccc(CC(=O)Nc2cccc(Cl)n2)cc1  > 500 µM
15        O=C(Cc1ccc(Cl)cc1)Nc1cccc(Cl)n1  > 500 µM
16        O=C(Cc1cccc(Cl)c1)Nc1ccc(Cl)cn1  > 500 µM
17         O=C(Cc1ccc(F)cc1)Nc1ccc(Cl)cn1  > 500 µM
18             O=C(Cc1ccc(F)cc1)Nc1ccccn1  > 500 µM
19    O=C(Cc1ccccc1C(F)(F)F)Nc1cccc(Cl)n1  > 500 µM
20            COc1ccc(CC(=O)Nc2ccccn2)cc1  > 500 µM
21      O=C(Cc1cccc(C(F)(F)F)c1)Nc1ccccn1  > 500 µM

###

Test system: Trichophyton interdigitale CCM 8377, ATCC 9533
Experimental Protocol: Antifungal microdilution broth MIC, TI
Study Conditions: Trichophyton interdigitale, 72 h, read-out: MIC TI 72h
// MIC lookup, one value per entry
Experimental Endpoint: MIC (µM)

>>> df
                              cpd_smiles  bound_operator  measured
0  O=C(Cc1cccc(C(F)(F)F)c1)Nc1cccc(Cl)n1               >       500
1        O=C(Cc1cccc(Cl)c1)Nc1ccc(Cl)cn1               =       500
2            COc1ccc(CC(=O)Nc2ccccn2)cc1               =       500
3        O=C(Cc1ccc(Cl)cc1)Nc1ccc(Cl)cn1               >       500
4      O=C(Cc1cccc(C(F)(F)F)c1)Nc1ccccn1               =       500
5        COc1ccc(CC(=O)Nc2ccc(Cl)cn2)cc1               >       500
6        O=C(Cc1ccc(Cl)cc1)Nc1cccc(Cl)n1               =      62.5
7            O=C(Cc1ccc(Cl)cc1)Nc1ccccn1               =       250
8        COc1cccc(CC(=O)Nc2cccc(Cl)n2)c1               =       500
9      O=C(Cc1ccc(C(F)(F)F)cc1)Nc1ccccn1               >       500

###

System: Trichophyton interdigitale CCM 8377, ATCC 9533
Experimental Protocol: Antifungal microdilution broth MIC, TI
Study Conditions: Trichophyton interdigitale, 120 h, read-out: MIC TI 120h
Experimental Endpoint: MIC (µM)

In [3]: df
Out[3]:
                               cpd_smiles  bound_operator  measured
 0              COc1ccccc1CC(=O)Nc1ccccn1               >       500
 1  O=C(Cc1cccc(C(F)(F)F)c1)Nc1ccc(Cl)cn1               =       500
 2            O=C(Cc1ccc(Cl)cc1)Nc1ccccn1               =       250
 3    O=C(Cc1ccccc1C(F)(F)F)Nc1ccc(Cl)cn1               =       500
 4          O=C(Cc1ccccc1Cl)Nc1cccc(Cl)n1               =       500
 5        O=C(Cc1cccc(Cl)c1)Nc1cccc(Cl)n1               =       500
 6         O=C(Cc1ccc(F)cc1)Nc1ccc(Cl)cn1               >       500
 7        COc1cccc(CC(=O)Nc2cccc(Cl)n2)c1               >       500
 8        O=C(Cc1ccc(Cl)cc1)Nc1cccc(Cl)n1               =       125
 9             O=C(Cc1ccc(F)cc1)Nc1ccccn1               >       500
10  O=C(Cc1ccc(C(F)(F)F)cc1)Nc1cccc(Cl)n1               =       500
